These entries and their values trace back to patent US20130129722A1.

STUDY TARGET: Dimeric Human Ang-2FD conjugated to human IgG1 (human)
Sequence (chain, as listed by the source limits assumed): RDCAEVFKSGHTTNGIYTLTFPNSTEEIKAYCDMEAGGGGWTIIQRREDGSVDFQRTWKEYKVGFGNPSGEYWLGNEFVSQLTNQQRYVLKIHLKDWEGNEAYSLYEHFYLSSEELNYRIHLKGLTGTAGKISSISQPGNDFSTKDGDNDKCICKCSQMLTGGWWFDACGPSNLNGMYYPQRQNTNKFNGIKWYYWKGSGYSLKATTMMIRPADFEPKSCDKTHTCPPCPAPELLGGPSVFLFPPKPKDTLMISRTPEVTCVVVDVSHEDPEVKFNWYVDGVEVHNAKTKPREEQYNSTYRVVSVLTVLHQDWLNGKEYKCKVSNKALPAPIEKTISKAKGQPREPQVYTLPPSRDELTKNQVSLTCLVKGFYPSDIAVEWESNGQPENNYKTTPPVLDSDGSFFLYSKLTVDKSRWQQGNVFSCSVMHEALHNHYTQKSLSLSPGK
ASSAY COMMENT: SPR, antibody captured, room temperature
QUANTITY KIND: T1/2 (min)
Only the number, expressed in min, is required.

For record H2M730N (antibody, V domains shown) VH: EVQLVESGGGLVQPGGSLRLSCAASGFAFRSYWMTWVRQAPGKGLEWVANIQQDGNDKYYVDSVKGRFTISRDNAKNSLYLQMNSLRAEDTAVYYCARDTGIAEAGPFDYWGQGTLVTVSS VL: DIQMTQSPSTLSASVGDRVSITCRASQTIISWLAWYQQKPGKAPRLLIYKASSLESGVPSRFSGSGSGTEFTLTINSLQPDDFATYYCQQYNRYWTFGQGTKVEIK the listed T1/2 is 47
